- experimental-system: Advanced glycosylation end product-specific receptor (Homo sapiens, UniProt Q15109)
- Sequence (Q15109 whole entry, the tested form may be a part): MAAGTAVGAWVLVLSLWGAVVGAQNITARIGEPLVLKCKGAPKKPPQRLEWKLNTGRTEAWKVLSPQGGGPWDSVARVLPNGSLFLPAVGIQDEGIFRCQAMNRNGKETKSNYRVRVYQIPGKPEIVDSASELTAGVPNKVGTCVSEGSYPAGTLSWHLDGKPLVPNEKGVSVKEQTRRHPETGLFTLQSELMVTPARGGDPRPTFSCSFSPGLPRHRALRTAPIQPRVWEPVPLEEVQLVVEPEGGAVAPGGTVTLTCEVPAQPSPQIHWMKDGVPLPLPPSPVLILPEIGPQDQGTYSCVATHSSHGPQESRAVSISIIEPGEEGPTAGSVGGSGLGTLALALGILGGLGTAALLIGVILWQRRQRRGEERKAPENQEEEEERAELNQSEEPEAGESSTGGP
- assay-name: Binding affinity to human C-terminal His-tagged RAGE domain V (24 to 125 residues) expressed in Escherichia coli BL21(DE3) by tryptophan fluorescence assay
pKd: −log10 of the molar value.
reported-endpoint: pKd

compound="CC1NC(NCCC[C@H](N)C(=O)O)=NC1=O (stereo partly specified)" experimental_system="Advanced glycosylation end product-specific receptor (Homo sapiens, UniProt Q15109)" reported_endpoint=pKd result="7.40 to 7.52"

----------
- experimental-system: UniProtKB Q15109
- assay-name: Inhibition of HMGB1 binding to human RAGE domain V expressed in CHO cells
- Type: cell-based
pKi: −log10 of the molar value.
reported-endpoint: pKi

smiles=O=C(c1ccc(Cl)cc1)N(Cc1ccccc1)C1CCCCC1 reported_endpoint=pKi measured_number=6.83
